Values were extracted from patent US8546380B2.

Would you mind telling me the reported melting point of each entry?

Report melting point, nothing else, for this compound: CC1(c2ccc(O)cc2)CCSC(N)=N1.Cl (centres unmarked) [Compound 413]
251 to 254 °C

Report melting point, nothing else, for this compound: Cn1nc(C(=O)Nc2cccc(C3(C)CCSC(N)=N3)c2)cc1[N+](=O)[O-] (centres unmarked) [Compound 601]
181 to 192 °C

Report melting point, nothing else, for this compound: CC1(c2cc(C#N)cc(NC(=O)c3ccc(Cl)cn3)c2)CCSC(N)=N1 (centres unmarked) [Compound 255]
238 to 239 °C

Report melting point, nothing else, for this compound: CC1(c2cccc(NC(=O)c3ccc(C#N)cc3)c2)CCSC(N)=N1 (centres unmarked) [Compound 498]
122 to 125 °C

Report melting point, nothing else, for this compound: NC1=NC2(CCS1)CCc1ccccc12 (centres unmarked) [Compound 525]
105 to 106 °C

Report melting point, nothing else, for this compound: COc1ccc(C2(C)CCSC(N)=N2)cc1F (centres unmarked) [Compound 551]
139 to 141 °C

Report melting point, nothing else, for this compound: CC1(c2ccc3c(c2)CCO3)CCSC(N)=N1 (centres unmarked) [Compound 1084]
146 to 149 °C

Report melting point, nothing else, for this compound: Cc1cnc(C(=O)Nc2cccc(C3(C)CCSC(N)=N3)c2)cn1.Cl (centres unmarked) [Compound 309]
241 to 244 °C

Report melting point, nothing else, for this compound: CC1(c2cccc(/C=C/c3ccc(Cl)cc3)c2)CCSC(N)=N1.Cl (centres unmarked) [Compound 161]
247 to 251 °C

Report melting point, nothing else, for this compound: COc1ccc(C2(C)CCCN=C(NC(C)(C)C)S2)cc1 (centres unmarked) [Compound 354]
102 to 103 °C

Report melting point, nothing else, for this compound: CC1(c2cccc(CNC(=O)c3ccc(F)cc3)c2)CCSC(N)=N1.Cl (centres unmarked) [Compound 1241]
194 to 195 °C

Report melting point, nothing else, for this compound: CC1(c2ccccc2)CCN=C(N)S1.Cl (centres unmarked)
201 to 204 °C

Report melting point, nothing else, for this compound: CCOc1cnc(C(=O)Nc2cccc(C3(C)CCSC(N)=N3)c2)cn1 (centres unmarked) [Compound 863]
192 to 194 °C

Report melting point, nothing else, for this compound: CC1(c2cccc(SC(=O)c3ncc(Br)cn3)c2)CCSC(N)=N1 (centres unmarked) [Compound 900]
205 to 207 °C

Report melting point, nothing else, for this compound: CC(=O)c1ccc(C(=O)Nc2cccc(C3(C)CCSC(N)=N3)c2)nc1 (centres unmarked) [Compound 139]
287 to 290 °C

Report melting point, nothing else, for this compound: CC1(c2cc(NC(=O)c3ncc(Cl)cn3)ccc2F)CCSC(N)=N1 (centres unmarked) [Compound 204]
205 to 208 °C

Report melting point, nothing else, for this compound: CC(=O)/N=C1\NC(C)(c2ccc(F)cc2)CCS1 (centres unmarked) [Compound 767]
98 to 100 °C

Report melting point, nothing else, for this compound: COc1ccc(CNc2cccc(C3(C)CCSC(N)=N3)c2)cc1.Cl.Cl (centres unmarked) [Compound 600]
178 to 180 °C

Report melting point, nothing else, for this compound: CC1(c2ccc(Cl)cc2)CSC(N)=N1 (centres unmarked) [Compound 24]
116 to 117 °C

Report melting point, nothing else, for this compound: CC1(c2cc(N)cc(Br)c2)CCSC(N)=N1.Cl.Cl (centres unmarked) [Compound 588]
155 to 156 °C
